# Measurement protocol: Cell viability, Alamar Blue fluorescence assay in primary cortical cultures
# Assay type: cell-based, mice
# Test conditions: mouse, primary cortical neuron cultures from mouse embryos; 0.5 μM gambierol, 72 hours in culture; mean ± standard error, three experiments; read-out: Viability of cortical neurons, % with respect to the control
Endpoint name: viability at 72 h, 0.5 μM (%)
Number in %, nothing else.

Q) Look up viability at 72 h, 0.5 μM for this molecule: C=CC/C=C\C=C/C1OC2CC3OC4CCC5OC6CC7(C)OC8(C)C(O)CC(CCCO)OC8CC7OC6CC5OC4(C)CC3(C)OC2C=CC1(C)O (stereo not shown)
A) 110

###

# Measurement protocol: Cell viability, Alamar Blue fluorescence assay in primary cortical cultures
# Type: cell-based, mice
# Test conditions: mouse, primary cortical neuron cultures from mouse embryos; 5 μM gambierol, 72 hours in culture; mean ± standard error, three experiments; read-out: Viability of cortical neurons, % with respect to the control
Endpoint name: viability at 72 h, 5 μM (%)
Number in %, nothing else.

Q) Look up viability at 72 h, 5 μM for this compound: C=CC/C=C\C=C/C1OC2CC3OC4CCC5OC6CC7(C)OC8(C)C(O)CC(CCCO)OC8CC7OC6CC5OC4(C)CC3(C)OC2C=CC1(C)O (stereo not shown)
A) 106

###

# Measurement protocol: Cell viability, Alamar Blue fluorescence assay in primary cortical cultures
# Type: cell-based, mice
# Test conditions: mouse, primary cortical neuron cultures from mouse embryos; 20 μM gambierol, 72 hours in culture; mean ± standard error, three experiments; read-out: Viability of cortical neurons, % with respect to the control
Endpoint name: viability at 72 h, 20 μM (%)
Number in %, nothing else.

Q) Look up viability at 72 h, 20 μM for this molecule: C=CC/C=C\C=C/C1OC2CC3OC4CCC5OC6CC7(C)OC8(C)C(O)CC(CCCO)OC8CC7OC6CC5OC4(C)CC3(C)OC2C=CC1(C)O (stereo not shown)
A) 102

###

# Measurement protocol: Cell viability, Alamar Blue fluorescence assay in primary cortical cultures
# Type: cell-based, mice
# Test conditions: mouse, primary cortical neuron cultures from mouse embryos; 10 μM gambierol, 72 hours in culture; mean ± standard error, three experiments; read-out: Viability of cortical neurons, % with respect to the control
Endpoint name: viability at 72 h, 10 μM (%)
Number in %, nothing else.

Q) Look up viability at 72 h, 10 μM for this compound: C=CC/C=C\C=C/C1OC2CC3OC4CCC5OC6CC7(C)OC8(C)C(O)CC(CCCO)OC8CC7OC6CC5OC4(C)CC3(C)OC2C=CC1(C)O (stereo not shown)
A) 105
